Reported values: IC50 for Disintegrin and metalloproteinase domain-containing protein 17 (Homo sapiens), one per item.
Please respond with the number in nM and leave the unit unwritten.

Solved entries (count: 2):
CC#CCOc1ccc(S(=O)(=O)CC2(C(=O)NO)CCN(c3c(C)noc3C)CC2)cc1    2.2
CC#CCOc1ccc(S(=O)(=O)N[C@@H](C(=O)NO)[C@H](C)O)cc1    2

Let us examine a further case.
Suppose we examine the compound CN1CC2(CC2)C[C@H](C(=O)NO)[C@H]1C(=O)N1CCN(c2ccc(C(F)(F)F)cn2)CC1 ; what IC50 value has been reported?
2040

---

- target.under.test: 72 kDa type IV collagenase (Homo sapiens, UniProt P08253)
- Sequence (P08253 whole entry): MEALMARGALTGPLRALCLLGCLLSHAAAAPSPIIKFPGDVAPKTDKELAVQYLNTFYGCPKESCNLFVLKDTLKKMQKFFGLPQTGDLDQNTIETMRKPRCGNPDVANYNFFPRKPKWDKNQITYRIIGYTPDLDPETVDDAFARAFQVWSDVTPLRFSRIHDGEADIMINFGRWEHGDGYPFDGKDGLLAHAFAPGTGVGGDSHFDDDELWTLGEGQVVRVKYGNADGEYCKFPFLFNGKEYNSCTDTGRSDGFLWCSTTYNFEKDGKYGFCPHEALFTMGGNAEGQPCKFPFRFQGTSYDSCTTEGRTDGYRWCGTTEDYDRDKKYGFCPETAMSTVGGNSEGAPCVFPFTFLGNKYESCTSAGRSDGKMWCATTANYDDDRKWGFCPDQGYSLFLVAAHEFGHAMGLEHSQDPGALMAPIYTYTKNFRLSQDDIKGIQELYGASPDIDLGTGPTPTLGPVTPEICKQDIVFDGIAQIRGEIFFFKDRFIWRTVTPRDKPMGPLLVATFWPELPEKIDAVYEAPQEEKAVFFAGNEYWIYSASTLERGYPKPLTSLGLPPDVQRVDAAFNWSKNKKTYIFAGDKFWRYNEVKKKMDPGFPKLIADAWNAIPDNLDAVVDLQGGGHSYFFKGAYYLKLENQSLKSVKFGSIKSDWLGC
measurement.type: Ki

Examples with their reported Ki follow.
NC(=O)[C@H](CCC(=O)O)NC(=O)[C@H](CCC(=O)O)NC(=O)[C@H](Cc1cc(-c2ccc(-c3cccc(Cl)c3)cc2)no1)CP(=O)(O)c1ccc(Br)cc1    192 nM
Cc1cc(COc2ccc(NC(=O)[C@H]3[C@H](C(=O)NO)CCCN3C)cc2)c2ccccc2n1    > 3330 nM
Cc1cc(COc2ccc(C(=O)N[C@@]3(CC(=O)NO)C[C@@H](C)N[C@@H](C)C3)cc2)c2ccccc2n1    > 3000 nM
CC1(CN[C@H](C(=O)NO)[C@@H](Cc2cccc(O)c2)C(=O)N[C@H]2c3ccccc3C[C@H]2O)CC1    > 3000 nM

Now for the molecule whose Ki we want.
Given O=C1NCCCC[C@@H](C(=O)NCC(=O)N2CCOCC2)NC(=O)[C@H](Cc2ccc(-c3ccccc3C(F)(F)F)cc2)[C@@H](C(=O)NO)CCCO1 , state its recorded Ki.
> 2000 nM
